Test: Chemical stability of 3 in buffer solutions at different pHs (HPLC)
Type: physicochemical
Settings: PBS buffer without esterase; PBS buffer (pH = 7.4), no esterase, 37 °C; read-out: Half-life (t1/2) of hydrolysis
metric name: half-life at 0.15 mg/mL
Hey, just the number and the unit after it is fine.

**Query** Entry O=C(CCC(=O)OC(Cn1ccnc1)c1cccc(Br)c1)OCn1cc(F)c(=O)[nH]c1=O (stereo not shown) : reported half-life at 0.15 mg/mL = ?
**Result** 28.1 h

* * *

Biological target: HO-1 (Rattus norvegicus)
Sequence (P06762 1-289): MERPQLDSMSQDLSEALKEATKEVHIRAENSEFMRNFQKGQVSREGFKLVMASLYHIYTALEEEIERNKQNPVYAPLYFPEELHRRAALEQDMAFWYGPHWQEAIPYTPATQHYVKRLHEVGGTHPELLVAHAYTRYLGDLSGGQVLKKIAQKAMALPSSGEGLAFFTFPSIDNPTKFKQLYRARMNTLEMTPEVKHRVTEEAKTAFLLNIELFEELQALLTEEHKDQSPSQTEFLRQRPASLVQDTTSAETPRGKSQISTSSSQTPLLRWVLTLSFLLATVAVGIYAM
Kindly supply the reported IC50 values for the records listed here.
One number for each entry, in µM.

**Query** Entry O=C(O)CCC(=O)OC(Cn1ccnc1)c1cccc(Br)c1 (centres unmarked) : reported IC50 = ?
**Result** 105

Next compound, IC50 to be filled in.
**Query** Entry O=C(CCC(=O)OC(Cn1ccnc1)c1cccc(Br)c1)OCn1cc(F)c(=O)[nH]c1=O (centres unmarked) : reported IC50 = ?
**Result** 82
